Ref: ChEMBL document CHEMBL2346641

measurement_protocol: Drug uptake in gerbil serum at 0.1 mg/kg, ip after 36 mins
Format: ADME, organism-based
Set-up: dose 0.1 mg/kg, route intraperitoneal
particulars: gerbillinae, read-out: Drug uptake

smiles_text	unit_text	concentration at 0.6 h
FC(F)(F)c1cc(COCC2(c3ccccc3)CCNCC2)cc(C(F)(F)F)c1	nM	3.6

---

test_system: UniProt:P29371
Sequence (P29371 whole entry): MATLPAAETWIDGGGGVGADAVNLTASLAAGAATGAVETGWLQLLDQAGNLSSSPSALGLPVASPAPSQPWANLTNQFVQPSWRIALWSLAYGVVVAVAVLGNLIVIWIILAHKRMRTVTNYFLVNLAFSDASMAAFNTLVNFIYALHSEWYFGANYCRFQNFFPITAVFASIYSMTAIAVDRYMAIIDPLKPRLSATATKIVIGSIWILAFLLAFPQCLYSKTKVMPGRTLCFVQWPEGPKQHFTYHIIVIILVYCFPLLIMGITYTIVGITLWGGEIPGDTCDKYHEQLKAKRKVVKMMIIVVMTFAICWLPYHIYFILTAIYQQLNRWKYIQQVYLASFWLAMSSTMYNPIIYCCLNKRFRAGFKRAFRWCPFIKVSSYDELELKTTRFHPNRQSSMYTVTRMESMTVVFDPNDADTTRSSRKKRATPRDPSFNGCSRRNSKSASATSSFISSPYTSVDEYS
pIC50: −log10 of the molar value.

smiles_text	test_system	pIC50
FC(F)(F)c1cc(COCC2(c3ccccc3)CCNCC2)cc(C(F)(F)F)c1	UniProt:P29371	< 6.00

---

measurement_protocol: Ratio of drug level in brain to serum in gerbil at 30 mg/kg, ip after 36 mins
Assay type: ADME, organism-based
Set-up: dose 30 mg/kg, route intraperitoneal
particulars: gerbillinae

smiles_text	Kp at 0.6 h
FC(F)(F)c1cc(COCC2(c3ccccc3)CCNCC2)cc(C(F)(F)F)c1	2.3

---

test_system: Substance-P receptor (Homo sapiens)
Sequence (P25103 whole entry): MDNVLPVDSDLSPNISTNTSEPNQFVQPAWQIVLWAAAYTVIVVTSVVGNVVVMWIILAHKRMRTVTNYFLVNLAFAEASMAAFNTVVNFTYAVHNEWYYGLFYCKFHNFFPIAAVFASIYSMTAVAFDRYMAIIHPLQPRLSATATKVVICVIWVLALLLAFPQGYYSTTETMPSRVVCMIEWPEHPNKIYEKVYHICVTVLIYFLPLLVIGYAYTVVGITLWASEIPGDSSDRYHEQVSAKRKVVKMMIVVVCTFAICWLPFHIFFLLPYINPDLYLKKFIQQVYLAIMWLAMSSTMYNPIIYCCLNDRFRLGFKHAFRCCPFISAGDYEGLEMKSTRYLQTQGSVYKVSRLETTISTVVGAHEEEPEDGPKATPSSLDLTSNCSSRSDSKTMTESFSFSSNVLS
measurement_protocol: Displacement of [125I]substance P from human recombinant NK1 receptor expressed in human U373 cells after 1 hr by scintillation counting analysis
# t = IC50 below 30 nM (exclusive); f = IC50 at/above 30 nM

molecule	test_system	discrete_label
FC(F)(F)c1cc(COCC2(c3ccccc3)CCCCNCC2)cc(C(F)(F)F)c1 (racemic)	Substance-P receptor (Homo sapiens)	t
FC(F)(F)c1cc(COC[C@]2(c3ccccc3)CCCCNC2)cc(C(F)(F)F)c1	Substance-P receptor (Homo sapiens)	t
FC(F)(F)c1cc(COC[C@@]2(c3ccccc3)CCCN(Cc3ccccc3)CC2)cc(C(F)(F)F)c1	Substance-P receptor (Homo sapiens)	f
CC(C)(C)OC(=O)N1CCC(COCc2cc(C(F)(F)F)cc(C(F)(F)F)c2)(c2ccccc2)CC1	Substance-P receptor (Homo sapiens)	f
FC(F)(F)c1cc(COCC2(c3ccccc3)CCCCC2)cc(C(F)(F)F)c1	Substance-P receptor (Homo sapiens)	f
CCN1CCC[C@](COCc2cc(C(F)(F)F)cc(C(F)(F)F)c2)(c2ccccc2)CC1	Substance-P receptor (Homo sapiens)	f
FC(F)(F)c1cc(COCC2(c3ccccc3)CCCNCCC2)cc(C(F)(F)F)c1	Substance-P receptor (Homo sapiens)	t
FC(F)(F)c1cc(COC[C@]2(c3ccccc3)CCCN(Cc3ccccc3)CC2)cc(C(F)(F)F)c1	Substance-P receptor (Homo sapiens)	t
CN1CCCC[C@](COCc2cc(C(F)(F)F)cc(C(F)(F)F)c2)(c2ccccc2)C1	Substance-P receptor (Homo sapiens)	f
